# STK11 functional score per record follows
B1: library; numbered along this chain (parent)
chain: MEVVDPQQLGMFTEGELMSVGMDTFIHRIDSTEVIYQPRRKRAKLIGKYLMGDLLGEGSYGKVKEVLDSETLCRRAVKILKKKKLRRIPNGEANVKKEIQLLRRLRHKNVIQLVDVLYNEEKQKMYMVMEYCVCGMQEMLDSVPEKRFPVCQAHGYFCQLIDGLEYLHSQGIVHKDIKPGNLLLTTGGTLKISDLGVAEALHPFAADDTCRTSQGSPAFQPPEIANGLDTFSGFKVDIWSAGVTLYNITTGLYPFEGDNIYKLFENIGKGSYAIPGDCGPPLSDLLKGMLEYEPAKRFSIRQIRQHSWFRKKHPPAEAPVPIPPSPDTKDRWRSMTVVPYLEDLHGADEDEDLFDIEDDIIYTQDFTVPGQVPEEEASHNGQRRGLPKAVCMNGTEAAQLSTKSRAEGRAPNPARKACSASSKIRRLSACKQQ

# Variants of: B1
# test: STK11 functional score (HeLa growth suppression), rescaled enrichment; synonymous median = 1, nonsense median = 0 (normalised score)
# setup_conditions: with HeLa; variant type: missense
Give a plain numeric answer without units written out.

Below are worked cases with known answers.
H345G : 1.49
R211E : 1.53
S283A : 1.24
L353P : 1.12
N259S : 1.34

Query string: Using known records, supply STK11 functional score for K235Y
Result string: 1.19

Query string: Write down STK11 functional score measured for item P411L
Result string: 1.16

Query string: Supply STK11 functional score value. Item: L182T
Result string: 1.12

Query string: Please give measured STK11 functional score of the following entry: S378W
Result string: 0.76

Query string: Find the measured STK11 functional score of Y272R and report it.
Result string: 0.701

Query string: Using known records, supply STK11 functional score for L113H
Result string: 0.781

Query string: Return STK11 functional score (reported value) for this variant: I356R
Result string: 1.19

Query string: Report measured STK11 functional score; entry is L290N
Result string: -0.076

Query string: Please report STK11 functional score for the following variant: L201S
Result string: 0.759

Query string: Look up and state reported STK11 functional score for V337F
Result string: 0.545

Query string: Given F219S , respond with its STK11 functional score.
Result string: 0.778

Query string: Assign STK11 functional score to the following record: Y292A
Result string: 1.15
